- Test system: CAPAN-1;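 also: growth suppression of CAPAN-1 cells, read out by a cell viability assay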
- Assay overview: cells
- Format: functional, cell-based, Homo sapiens
- Condition context: Homo sapiens, CAPAN-1
- Description: SANGER: Inhibition of human CAPAN-1 cell growth in a cell viability assay.
Endpoint name: IC50

# annotated cases, reported IC50 shown
| Molecule | IC50 |
| --- | --- |
| CC(C)CCN1c2nc(Nc3cc(F)c(O)c(F)c3)ncc2N(C)C(=O)C1C (stereo not given) | > 5000 nM |
| CC1(C)CNc2cc(NC(=O)c3cccnc3NCc3ccncc3)ccc21 [MOTESANIB] | > 2000 nM |
| Nc1ccn([C@@H]2O[C@H](CO)[C@@H](O)C2(F)F)c(=O)n1 [GEMCITABINE] | 9.23 nM |
| CO[C@H]1C[C@@H]2CC[C@@H](C)[C@@](O)(O2)C(=O)C(=O)N2CCCC[C@H]2C(=O)O[C@H]([C@H](C)C[C@@H]2CC[C@@H](OC(=O)C(C)(CO)CO)[C@H](OC)C2)CC(=O)[C@H](C)/C=C(\C)[C@@H](O)[C@@H](OC)C(=O)[C@H](C)C[C@H](C)/C=C/C=C/C=C/1C [TEMSIROLIMUS] | > 200 nM |

Turning now to a further molecule:
Request: Entry Nc1cccc2c1CN(C1CCC(=O)NC1=O)C2=O (stereo not given) [LENALIDOMIDE] has what IC50?
Result: > 5000 nM

* * *

- Test system: A3-KAW
- Assay overview: cells
- Assay type: functional, cell-based, Homo sapiens
- Condition context: a3-kaw
- Description: SANGER: Inhibition of human A3-KAW cell growth in a cell viability assay.
Endpoint name: IC50 (nM)
# output: bare number, implied unit nM

Request: Could you share what IC50 was measured for BLEOMYCIN , tested on A3-KAW?;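 also: growth inhibition of human A3-KAW cells, read out with a cell viability assay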
Result: 717

* * *

- System: HD-MY-Z
- Assay overview: cells
- Type: functional, cell-based, Homo sapiens
- Condition context: Homo sapiens, HD-MY-Z
- Description: SANGER: Inhibition of human HD-MY-Z cell growth in a cell viability assay.
Endpoint name: log10(IC50) (log10 of the value in µM)
Annotation: log10 of IC50, µM basis.

# annotated cases, reported log10(IC50) shown
| Compound | log10(IC50) |
| --- | --- |
| N#Cc1c(O)c2c(-c3ccc(-c4ccccc4O)cc3)csc2[nH]c1=O | -0.83 |
| CC(C)CCN1c2nc(Nc3cc(F)c(O)c(F)c3)ncc2N(C)C(=O)C1C (stereo unspecified) | 0.53 |
| CC(C)c1ccccc1Cc1cc(C(=O)Nc2ccc(S(=O)(=O)c3ccccc3C(C)(C)C)cc2)c(O)c(O)c1O | -0.40 |
| COc1cc(-c2nn([C@H]3CC[C@H](N4CCN(C(C)=O)CC4)CC3)c3ncnc(N)c23)ccc1NC(=O)c1cc2ccccc2n1C | 0.69 |
| CC(=O)O[C@H]1C(=O)[C@@]2(C)[C@H]([C@H](OC(=O)c3ccccc3)[C@]3(O)C[C@H](OC(=O)[C@H](O)[C@@H](NC(=O)c4ccccc4)c4ccccc4)C(C)=C1C3(C)C)[C@]1(OC(C)=O)CO[C@@H]1C[C@@H]2O [PACLITAXEL] | -1.94 |
| Cc1cc([N+](=O)[O-])ccc1NS(=O)(=O)c1cc(Cl)ccc1Cl | 1.16 |

Turning now to a further compound:
Request: Entry N[C@@H](CSC(c1ccccc1)(c1ccccc1)c1ccccc1)C(=O)O [S-TRITYL-L-CYSTEINE] has what log10(IC50)?
Result: 0.35

* * *

- System: CTB-1
- Assay overview: cells
- Format: functional, cell-based, Homo sapiens
- Condition context: ctb-1
- Description: SANGER: Inhibition of human CTB-1 cell growth in a cell viability assay.
Endpoint name: pIC50
Quick note: pIC50 values are minus log10 of concentrations in mol/L.

Request: Could you share what pIC50 was measured for CISPLATIN , tested on CTB-1?
Result: 5.64
